Where do the numbers come from? From BindingDB's records for doi:10.1038/nchembio.2306.

System: Polycomb protein EED (Homo sapiens, UniProt O75530) | Read-out: Ki
Sequence (O75530 whole entry): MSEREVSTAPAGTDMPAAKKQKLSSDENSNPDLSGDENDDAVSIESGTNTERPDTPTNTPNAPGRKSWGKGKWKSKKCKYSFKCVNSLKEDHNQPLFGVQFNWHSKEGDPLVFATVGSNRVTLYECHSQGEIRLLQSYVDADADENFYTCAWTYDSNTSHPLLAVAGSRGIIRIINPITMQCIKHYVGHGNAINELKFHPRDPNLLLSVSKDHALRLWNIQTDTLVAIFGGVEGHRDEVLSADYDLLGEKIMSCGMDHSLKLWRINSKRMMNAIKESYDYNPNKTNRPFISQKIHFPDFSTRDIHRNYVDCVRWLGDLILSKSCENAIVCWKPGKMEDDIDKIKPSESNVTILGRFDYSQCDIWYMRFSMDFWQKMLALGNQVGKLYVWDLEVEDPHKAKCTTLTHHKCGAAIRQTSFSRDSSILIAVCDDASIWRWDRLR
experimental.endpoint: Ki (nM)

(P) CN(C)[C@H]1CN([C@H]2CCc3cccc(F)c32)C[C@@H]1c1cn(C)c2ccccc12
(Q) CN(C)[C@@H]1CN(Cc2ccccc2)C[C@H]1c1ccc(N2CCN(S(C)(=O)=O)CC2)cc1 [A-395N (6)]
Between the entries labelled P and Q , which has a larger Ki value on record? Lab log: write the label of the selected item as the result.
Q
(Q: 1830 nM, P: 1 nM)
